- Experimental Target: panel of 60 human kinases (Homo sapiens)
- Construct: purchased Reaction Biology Corp
- Assay Explanation: Radiolabeled ATP kinase assay, panel of 60 kinases (Table S5)
- Format: biochemical
- Test Context: PKCnu/PRKD3; 0.1 μM; 10 μM ATP; read-out: % Enzyme Activity (relative to DSMO controls)
Measurement Type: remaining activity at 0.1 µM (%)
Could you give me the number in %? Just the number is fine.

# remaining activity at 0.1 µM (compound: CN1CCN(Cc2ccc(-c3cnc4[nH]cc(-c5ccc6c(c5)OCCO6)c4c3)cc2)CC1 ) is 6.42

# remaining activity at 0.1 µM (compound: CN1CCN(Cc2ccc(-c3cnc4[nH]cc(-c5ccncc5)c4c3)cc2)CC1 ) is 42.3

# remaining activity at 0.1 µM (compound: CN1CCN(Cc2ccc(-c3cnc4[nH]cc(-c5ccc6[nH]ccc6c5)c4c3)cc2)CC1 [Compound 1, reference compound] ) is 16.1

# remaining activity at 0.1 µM (compound: Cc1nn(C)c(C)c1-c1c[nH]c2ncc(-c3ccc(CN4CCN(C)CC4)cc3)cc12 ) is 19.2

###

- Experimental Target: panel of 60 human kinases (Homo sapiens, UniProt Q99683)
- Construct: purchased Reaction Biology Corp
- Sequence (Q99683 whole entry): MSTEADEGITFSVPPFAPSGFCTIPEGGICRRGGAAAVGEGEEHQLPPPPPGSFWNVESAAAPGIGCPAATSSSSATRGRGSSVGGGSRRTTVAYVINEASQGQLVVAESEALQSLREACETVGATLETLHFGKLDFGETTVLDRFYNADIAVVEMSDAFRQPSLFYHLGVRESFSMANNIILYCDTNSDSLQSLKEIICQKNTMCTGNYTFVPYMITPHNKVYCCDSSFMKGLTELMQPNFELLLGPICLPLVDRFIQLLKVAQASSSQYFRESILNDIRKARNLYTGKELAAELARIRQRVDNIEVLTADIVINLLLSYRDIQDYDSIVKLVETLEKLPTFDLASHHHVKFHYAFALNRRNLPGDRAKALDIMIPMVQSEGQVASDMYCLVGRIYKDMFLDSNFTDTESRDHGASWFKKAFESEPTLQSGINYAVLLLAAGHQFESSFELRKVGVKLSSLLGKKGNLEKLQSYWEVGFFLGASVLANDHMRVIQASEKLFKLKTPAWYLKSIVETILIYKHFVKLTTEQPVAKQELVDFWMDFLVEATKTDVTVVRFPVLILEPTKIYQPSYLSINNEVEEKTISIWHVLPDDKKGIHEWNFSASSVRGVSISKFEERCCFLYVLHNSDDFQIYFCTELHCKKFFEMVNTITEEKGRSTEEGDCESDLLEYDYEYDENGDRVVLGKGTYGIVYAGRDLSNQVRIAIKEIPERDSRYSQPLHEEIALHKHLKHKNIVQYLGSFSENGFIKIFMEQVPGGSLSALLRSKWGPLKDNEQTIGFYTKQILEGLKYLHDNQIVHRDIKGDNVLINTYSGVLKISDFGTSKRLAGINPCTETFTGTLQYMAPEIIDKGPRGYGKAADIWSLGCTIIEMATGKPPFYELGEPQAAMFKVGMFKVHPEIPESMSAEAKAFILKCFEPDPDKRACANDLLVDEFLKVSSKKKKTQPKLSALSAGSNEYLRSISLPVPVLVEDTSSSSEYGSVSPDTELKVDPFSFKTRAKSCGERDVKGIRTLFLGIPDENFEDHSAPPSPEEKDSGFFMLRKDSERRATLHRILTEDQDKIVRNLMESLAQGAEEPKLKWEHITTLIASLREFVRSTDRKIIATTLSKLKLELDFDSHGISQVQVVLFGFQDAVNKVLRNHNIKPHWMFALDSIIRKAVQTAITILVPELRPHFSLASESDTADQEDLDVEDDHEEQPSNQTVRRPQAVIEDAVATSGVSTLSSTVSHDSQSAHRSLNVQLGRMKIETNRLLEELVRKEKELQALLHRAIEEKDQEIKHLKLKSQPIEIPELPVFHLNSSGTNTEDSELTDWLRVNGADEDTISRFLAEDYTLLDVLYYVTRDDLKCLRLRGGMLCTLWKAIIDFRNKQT
- Assay Explanation: Radiolabeled ATP kinase assay, panel of 60 kinases (Table S5)
- Type: biochemical
- Test Context: ASK1/MAP3K5; 0.1 μM; 10 μM ATP; read-out: % Enzyme Activity (relative to DSMO controls)
Exercise: for every item that follows, state its recorded remaining activity at 0.1 µM.
Could you give me the number in %? Just the number is fine.

# remaining activity at 0.1 µM (molecule: CN1CCN(Cc2ccc(-c3cnc4[nH]cc(-c5cccc(Cl)c5)c4c3)cc2)CC1 ) is 95.4

# remaining activity at 0.1 µM (molecule: CN1CCN(Cc2ccc(-c3cnc4[nH]cc(-c5ccoc5)c4c3)cc2)CC1 ) is 96

# remaining activity at 0.1 µM (molecule: CN1CCN(Cc2ccc(-c3cnc4[nH]cc(-c5ccc6c(c5)OCCO6)c4c3)cc2)CC1 ) is 80.2

# remaining activity at 0.1 µM (molecule: CN1CCN(Cc2ccc(-c3cnc4[nH]cc(-c5ccc6[nH]ccc6c5)c4c3)cc2)CC1 [Compound 1, reference compound] ) is 90.8

# remaining activity at 0.1 µM (molecule: CN1CCN(Cc2ccc(-c3cnc4[nH]cc(-c5ccccc5Cl)c4c3)cc2)CC1 ) is 87.6

# remaining activity at 0.1 µM (molecule: COc1ccccc1-c1c[nH]c2ncc(-c3ccc(CN4CCN(C)CC4)cc3)cc12 ) is 96.3

# remaining activity at 0.1 µM (molecule: CN1CCN(Cc2ccc(-c3cnc4[nH]cc(-c5ccncc5)c4c3)cc2)CC1 ) is 95.4

# remaining activity at 0.1 µM (molecule: Cc1nn(C)c(C)c1-c1c[nH]c2ncc(-c3ccc(CN4CCN(C)CC4)cc3)cc12 ) is 96.2

# remaining activity at 0.1 µM (molecule: CN1CCN(Cc2ccc(-c3cnc4[nH]cc(-c5cnn(Cc6ccccc6)c5)c4c3)cc2)CC1 ) is 95.6

###

- Experimental Target: MLK3/MAP3K11 (Homo sapiens)
- Construct: purchased Reaction Biology Corp
- Sequence (Q16584 whole entry): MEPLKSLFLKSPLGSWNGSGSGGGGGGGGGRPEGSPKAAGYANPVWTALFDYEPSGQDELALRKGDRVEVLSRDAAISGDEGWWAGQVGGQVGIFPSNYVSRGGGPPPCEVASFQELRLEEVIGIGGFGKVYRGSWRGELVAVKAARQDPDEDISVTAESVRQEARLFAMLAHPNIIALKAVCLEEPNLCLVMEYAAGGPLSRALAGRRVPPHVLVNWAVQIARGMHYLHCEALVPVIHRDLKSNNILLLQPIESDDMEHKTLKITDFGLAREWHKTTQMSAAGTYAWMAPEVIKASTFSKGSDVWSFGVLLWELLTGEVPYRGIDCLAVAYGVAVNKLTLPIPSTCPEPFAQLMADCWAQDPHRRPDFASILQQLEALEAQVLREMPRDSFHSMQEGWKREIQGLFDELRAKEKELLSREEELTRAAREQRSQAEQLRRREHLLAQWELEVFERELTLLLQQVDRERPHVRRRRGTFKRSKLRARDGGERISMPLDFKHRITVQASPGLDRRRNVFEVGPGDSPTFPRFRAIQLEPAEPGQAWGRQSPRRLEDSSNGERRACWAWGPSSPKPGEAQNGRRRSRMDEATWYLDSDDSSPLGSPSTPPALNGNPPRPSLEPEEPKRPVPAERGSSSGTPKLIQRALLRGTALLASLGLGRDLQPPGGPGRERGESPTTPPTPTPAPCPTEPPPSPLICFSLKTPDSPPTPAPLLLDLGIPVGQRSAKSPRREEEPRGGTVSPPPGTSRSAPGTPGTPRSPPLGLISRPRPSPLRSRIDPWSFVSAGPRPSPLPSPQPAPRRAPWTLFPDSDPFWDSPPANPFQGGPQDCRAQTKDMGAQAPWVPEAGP
- Assay Explanation: Radiolabeled ATP kinase assay (Reaction Biology Corp.), MLK3
- Assay type: biochemical
- Test Context: [Cmpd] 0.1 μM; 10 μM ATP
Measurement Type: % Enzyme Activity Remaining (relative to DMSO controls), MLK3/MAP3K11, Data 2 (%)
Could you give me the number in %? Just the number is fine.

# % Enzyme Activity Remaining (relative to DMSO controls), MLK3/MAP3K11, Data 2 (compound: CN1CCN(Cc2ccc(-c3cnc4[nH]cc(-c5ccc(CN6CCOCC6)s5)c4c3)cc2)CC1 ) is 78.30

# % Enzyme Activity Remaining (relative to DMSO controls), MLK3/MAP3K11, Data 2 (compound: CN1CCN(Cc2ccc(-c3cnc4[nH]cc(-c5cc(C(F)(F)F)cc(C(F)(F)F)c5)c4c3)cc2)CC1 ) is 93.75

# % Enzyme Activity Remaining (relative to DMSO controls), MLK3/MAP3K11, Data 2 (compound: CN1CCN(Cc2ccc(-c3cnc4[nH]cc(-c5ccncc5)c4c3)cc2)CC1 ) is 92.62

# % Enzyme Activity Remaining (relative to DMSO controls), MLK3/MAP3K11, Data 2 (compound: CN1CCN(Cc2ccc(-c3cnc4[nH]cc(-c5ccc(OC(F)(F)F)cc5)c4c3)cc2)CC1 ) is 94.16

# % Enzyme Activity Remaining (relative to DMSO controls), MLK3/MAP3K11, Data 2 (compound: CN1CCN(Cc2ccc(-c3cnc4[nH]cc(-c5ccc(C#N)cc5)c4c3)cc2)CC1 ) is 92.65

# % Enzyme Activity Remaining (relative to DMSO controls), MLK3/MAP3K11, Data 2 (compound: CN1CCN(Cc2ccc(-c3cnc4[nH]cc(-c5cc6ccccc6s5)c4c3)cc2)CC1 ) is 42.66

# % Enzyme Activity Remaining (relative to DMSO controls), MLK3/MAP3K11, Data 2 (compound: CN1CCN(Cc2ccc(-c3cnc4[nH]ccc4c3)cc2)CC1 ) is 94.97

# % Enzyme Activity Remaining (relative to DMSO controls), MLK3/MAP3K11, Data 2 (compound: COCCNC(=O)Nc1cccc(-c2c[nH]c3ncc(-c4ccc(CN5CCN(C)CC5)cc4)cc23)c1 ) is 80.78

# % Enzyme Activity Remaining (relative to DMSO controls), MLK3/MAP3K11, Data 2 (compound: CN1CCN(Cc2ccc(-c3cnc4[nH]cc(-c5ccccc5Cl)c4c3)cc2)CC1 ) is 51.55

# % Enzyme Activity Remaining (relative to DMSO controls), MLK3/MAP3K11, Data 2 (compound: CN1CCN(Cc2ccc(-c3cnc4[nH]cc(-c5cccc(C(F)(F)F)c5)c4c3)cc2)CC1 ) is 70.51

# % Enzyme Activity Remaining (relative to DMSO controls), MLK3/MAP3K11, Data 2 (compound: CN1CCN(Cc2ccc(-c3cnc4[nH]cc(-c5ccc(N)cc5)c4c3)cc2)CC1 ) is 54.29

# % Enzyme Activity Remaining (relative to DMSO controls), MLK3/MAP3K11, Data 2 (compound: CN1CCN(Cc2ccc(-c3cnc4[nH]cc(-c5cccc(C(=O)O)c5)c4c3)cc2)CC1 ) is 44.55

# % Enzyme Activity Remaining (relative to DMSO controls), MLK3/MAP3K11, Data 2 (compound: CN1CCN(Cc2ccc(-c3cnc4[nH]cc(-c5ccc(NC(=O)NC6CCCCC6)cc5)c4c3)cc2)CC1 ) is 66.67

# % Enzyme Activity Remaining (relative to DMSO controls), MLK3/MAP3K11, Data 2 (compound: CN1CCN(Cc2ccc(-c3cnc4[nH]cc(-c5csc6ccccc56)c4c3)cc2)CC1 ) is 73.51

# % Enzyme Activity Remaining (relative to DMSO controls), MLK3/MAP3K11, Data 2 (compound: CN1CCN(Cc2ccc(-c3cnc4[nH]cc(-c5ccc6cnn(C)c6c5)c4c3)cc2)CC1 ) is 52.80

# % Enzyme Activity Remaining (relative to DMSO controls), MLK3/MAP3K11, Data 2 (compound: CN1CCN(Cc2ccc(-c3cnc4[nH]cc(-c5cccc(Cl)c5)c4c3)cc2)CC1 ) is 38.21

# % Enzyme Activity Remaining (relative to DMSO controls), MLK3/MAP3K11, Data 2 (compound: CNC(=O)Nc1cccc(-c2c[nH]c3ncc(-c4ccc(CN5CCN(C)CC5)cc4)cc23)c1 ) is 48.02

# % Enzyme Activity Remaining (relative to DMSO controls), MLK3/MAP3K11, Data 2 (compound: CN1CCN(Cc2ccc(-c3cnc4[nH]cc(-c5cccc(F)c5)c4c3)cc2)CC1 ) is 43.09

# % Enzyme Activity Remaining (relative to DMSO controls), MLK3/MAP3K11, Data 2 (compound: CN1CCN(Cc2ccc(-c3cnc4[nH]cc(-c5ccc(N)nc5)c4c3)cc2)CC1 ) is 67.85

# % Enzyme Activity Remaining (relative to DMSO controls), MLK3/MAP3K11, Data 2 (compound: CN1CCN(Cc2ccc(-c3cnc4[nH]cc(-c5cnn(Cc6ccccc6)c5)c4c3)cc2)CC1 ) is 32.11

# % Enzyme Activity Remaining (relative to DMSO controls), MLK3/MAP3K11, Data 2 (compound: CC(C)Oc1ccc(-c2c[nH]c3ncc(-c4ccc(CN5CCN(C)CC5)cc4)cc23)cc1 ) is 89.69

# % Enzyme Activity Remaining (relative to DMSO controls), MLK3/MAP3K11, Data 2 (compound: COC(=O)Nc1ccc(-c2c[nH]c3ncc(-c4ccc(CN5CCN(C)CC5)cc4)cc23)cc1 ) is 63.06

# % Enzyme Activity Remaining (relative to DMSO controls), MLK3/MAP3K11, Data 2 (compound: C[C@@H](NC(=O)Nc1cccc(-c2c[nH]c3ncc(-c4ccc(CN5CCN(C)CC5)cc4)cc23)c1)c1ccccc1 ) is 86.58

# % Enzyme Activity Remaining (relative to DMSO controls), MLK3/MAP3K11, Data 2 (compound: COc1ccccc1-c1c[nH]c2ncc(-c3ccc(CN4CCN(C)CC4)cc3)cc12 ) is 21.30

# % Enzyme Activity Remaining (relative to DMSO controls), MLK3/MAP3K11, Data 2 (compound: CN1CCN(Cc2ccc(-c3cnc4[nH]cc(-c5cccc(N)c5)c4c3)cc2)CC1 ) is 63.31

# % Enzyme Activity Remaining (relative to DMSO controls), MLK3/MAP3K11, Data 2 (compound: COc1ccc(-c2c[nH]c3ncc(-c4ccc(CN5CCN(C)CC5)cc4)cc23)cc1C ) is 49.61
